# experiment: Cytotoxicity against human MT4 cells
# Assay type: cell-based
parameter: CC50

Known CC50 results, listed for orientation:
{"columns": ["testSmiles", "measuredResult"],
 "data": [
  ["COC(=O)N[C@H](C(=O)NN(CCC[C@@](O)(Cc1ccccc1)C(=O)N[C@H]1c2ccccc2C[C@H]1O)Cc1ccc(OCc2cnc(Cl)s2)cc1)C(C)(C)C", "> 10 µM"],
  ["COC(=O)N[C@H](C(=O)NN(CCC[C@@](O)(Cc1ccccc1)C(=O)N[C@H]1c2ccccc2C[C@H]1O)Cc1ccc(-c2nc(C(C)(C)C)cs2)cc1)C(C)(C)C", "> 10 µM"]
]}

Now examine the next entry.
Requested read-out: CC50. Entry: `COC(=O)N[C@H](C(=O)NN(CCC[C@@](O)(Cc1ccccc1)C(=O)N[C@H]1c2ccccc2C[C@H]1O)Cc1ccc(-c2ccncc2)cc1)C(C)(C)C`
> 10 µM

* * *

Catalogue of Papp A→B readings, one per entry.
# experiment: Permeability from apical to basolateral side of human Caco-2 cell membrane
# Format: ADME, cell-based

{"columns": ["testSmiles", "measuredResult"],
 "data": [
  ["COC(=O)N[C@H](C(=O)NN(CCC[C@@](O)(Cc1ccccc1)C(=O)N[C@H]1c2ccccc2C[C@H]1O)Cc1ccc(-c2cccnc2)cc1)C(C)(C)C", "< 20 ×10⁻⁶ cm/s"],
  ["COC(=O)N[C@H](C(=O)NN(CCC[C@@](O)(Cc1ccccc1)C(=O)N[C@H]1c2ccccc2C[C@H]1O)Cc1ccc(-c2nccs2)cc1)C(C)(C)C", "> 20 ×10⁻⁶ cm/s"],
  ["COC(=O)N[C@H](C(=O)NN(CCC[C@@](O)(Cc1ccccc1)C(=O)N[C@H]1c2ccccc2C[C@H]1O)Cc1ccc(Br)cc1)C(C)(C)C", "> 20 ×10⁻⁶ cm/s"]
]}

Consider the molecule `COC(=O)N[C@H](C(=O)NN(CCC[C@@](O)(Cc1ccccc1)C(=O)N[C@H]1c2ccccc2C[C@H]1O)Cc1ccc(-c2ccncc2)cc1)C(C)(C)C` and give its measured Papp A→B.
< 20 ×10⁻⁶ cm/s

# query: Papp A→B of entry `COC(=O)N[C@H](C(=O)NN(CCC[C@](O)(Cc1ccccc1)C(=O)N[C@H]1c2ccccc2C[C@H]1O)Cc1ccc(Br)cc1)C(C)(C)C`
> 20 ×10⁻⁶ cm/s

# query: Papp A→B of entry `COC(=O)N[C@H](C(=O)NN(CCC[C@@](O)(Cc1ccccc1)C(=O)N[C@H]1c2ccccc2C[C@H]1O)Cc1ccccc1)C(C)(C)C`
< 20 ×10⁻⁶ cm/s

Given `COC(=O)N[C@H](C(=O)NN(CCC[C@@](O)(Cc1ccccc1)C(=O)N[C@H]1c2ccccc2C[C@H]1O)Cc1ccc(-c2ccccc2)cc1)C(C)(C)C` , state its recorded Papp A→B.
> 20 ×10⁻⁶ cm/s

* * *

# experiment: Cytotoxicity against human MT4 cells
# Assay type: cell-based
parameter: CC50

Study these solved cases before continuing.
{"columns": ["testSmiles", "CC50"],
 "data": [
  ["COC(=O)N[C@H](C(=O)NN(CCC[C@@](O)(Cc1ccccc1)C(=O)N[C@H]1c2ccccc2C[C@H]1O)Cc1ccc(N2CCOCC2)cc1)C(C)(C)C", "> 10 µM"],
  ["COC(=O)N[C@H](C(=O)NN(CCC[C@@](O)(Cc1ccccc1)C(=O)N[C@H]1c2ccccc2C[C@H]1O)Cc1ccc(-c2nccs2)cc1)C(C)(C)C", "> 10 µM"],
  ["COC(=O)N[C@H](C(=O)NN(CCC[C@@](O)(Cc1ccccc1)C(=O)N[C@H]1c2ccccc2C[C@H]1O)Cc1ccc(-c2ccccn2)cc1)C(C)(C)C", "> 10 µM"],
  ["COC(=O)N[C@H](C(=O)NN(CCC[C@@](O)(Cc1ccccc1)C(=O)N[C@H]1c2ccccc2C[C@H]1O)Cc1ccc(-c2ccccc2)cc1)C(C)(C)C", "7.5 µM"]
]}

Please report the recorded CC50 for `COC(=O)N[C@H](C(=O)NN(CCC[C@@](O)(Cc1ccccc1)C(=O)N[C@H]1c2ccccc2C[C@H]1O)Cc1ccc(-c2cn3ccsc3n2)cc1)C(C)(C)C` .
> 10 µM

What measured CC50 goes with `COC(=O)N[C@H](C(=O)NN(CCC[C@@](O)(Cc1ccccc1)C(=O)N[C@H]1c2ccccc2C[C@H]1O)Cc1ccc(Cl)cc1)C(C)(C)C` ?
> 10 µM

* * *

# experiment: Cytotoxicity against human MT4 cells
# Format: cell-based
parameter: CC50

{"columns": ["testSmiles", "parameter", "measuredResult"],
 "data": [
  ["COC(=O)N[C@H](C(=O)NN(CCC[C@@](O)(Cc1ccccc1)C(=O)N[C@H]1c2ccccc2C[C@H]1O)Cc1ccc(-n2ccnc2)cc1)C(C)(C)C", "CC50", "> 10 µM"]
]}

# CC50 lookup, item `COC(=O)N[C@H](C(=O)NN(CCC[C@@](O)(Cc1ccccc1)C(=O)N[C@H]1c2ccccc2C[C@H]1O)Cc1ccc(Br)cc1)C(C)(C)C`
> 10 µM

Query (compound): `COC(=O)N[C@H](C(=O)NN(CCC[C@@](O)(Cc1ccccc1)C(=O)N[C@H]1c2ccccc2C[C@H]1O)Cc1ccc(-c2cncnc2)cc1)C(C)(C)C` ; field requested: CC50
> 10 µM

* * *

# subjectOfTest: Protease (Human immunodeficiency virus 1)
Examples of compounds with documented Ki follow.
Respond numerically; units are nM and should not be typed.

{"columns": ["compound", "measuredResult"],
 "data": [
  ["COC(=O)N[C@H](C(=O)NN(CCC[C@](Cc1ccccc1)(O[Si](C)(C)C(C)(C)C)C(=O)N[C@H]1c2ccccc2C[C@H]1O)Cc1ccc(Br)cc1)C(C)(C)C", 190],
  ["COC(=O)N[C@H](C(=O)N[C@@H](Cc1ccccc1)[C@@H](O)CN(Cc1ccc(-c2ccccn2)cc1)NC(=O)[C@@H](NC(=O)OC)C(C)(C)C)C(C)(C)C [ATAZANAVIR]", 2.7],
  ["COC(=O)N[C@H](C(=O)NN(CCC[C@@](O)(Cc1ccccc1)C(=O)N[C@H]1c2ccccc2C[C@H]1O)Cc1ccc(-c2ccsc2)cc1)C(C)(C)C", 10],
  ["COC(=O)N[C@H](C(=O)NN(CCC[C@@](O)(Cc1ccccc1)C(=O)N[C@H]1c2ccccc2C[C@H]1O)Cc1ccc(-c2cccnc2)cc1)C(C)(C)C", 3.6]
]}

Please tell me: Ki of `COC(=O)N[C@H](C(=O)NN(CCC[C@@](O)(Cc1ccccc1)C(=O)N[C@H]1c2ccccc2C[C@H]1O)Cc1ccc(-c2ccccn2)cc1)C(C)(C)C` , system Protease (Human immunodeficiency virus 1)?
2.8

* * *

# pKi measurements, system: Protease (Human immunodeficiency virus 1, UniProt Q9YQ12)
# Sequence (Q9YQ12 whole entry): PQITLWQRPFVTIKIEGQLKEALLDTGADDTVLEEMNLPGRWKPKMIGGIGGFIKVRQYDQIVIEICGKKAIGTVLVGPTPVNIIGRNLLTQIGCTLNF
// pKi is dimensionless: -log10 of concentration (M)

Consider the following illustrative entries.
{"columns": ["testSmiles", "parameter", "measuredResult"],
 "data": [
  ["COC(=O)N[C@H](C(=O)NN(CCC[C@@](O)(Cc1ccccc1)C(=O)N[C@H]1c2ccccc2C[C@H]1O)Cc1ccc(-c2nc(C(C)(C)C)cs2)cc1)C(C)(C)C", "pKi", 7.62],
  ["COC(=O)N[C@H](C(=O)NN(CCC[C@@](O)(Cc1ccccc1)C(=O)N[C@H]1c2ccccc2C[C@H]1O)Cc1ccc(N2CCOCC2)cc1)C(C)(C)C", "pKi", 8.44]
]}

I am curious: what pKi value has been reported for `COC(=O)N[C@H](C(=O)NN(CCC[C@@](O)(Cc1ccccc1)C(=O)N[C@H]1c2ccccc2C[C@H]1O)Cc1ccc(-c2noc(C)n2)cc1)C(C)(C)C` ?
8.44
